Data credit: patent US9018391B2

Listed here are compounds together with their documented IC50.
- TARGET UNDER TEST: truncated human beta-secretase, BACE1 (amino acids 1-454) (Homo sapiens (Human), UniProt P56817)
- Sequence (P56817 22-454): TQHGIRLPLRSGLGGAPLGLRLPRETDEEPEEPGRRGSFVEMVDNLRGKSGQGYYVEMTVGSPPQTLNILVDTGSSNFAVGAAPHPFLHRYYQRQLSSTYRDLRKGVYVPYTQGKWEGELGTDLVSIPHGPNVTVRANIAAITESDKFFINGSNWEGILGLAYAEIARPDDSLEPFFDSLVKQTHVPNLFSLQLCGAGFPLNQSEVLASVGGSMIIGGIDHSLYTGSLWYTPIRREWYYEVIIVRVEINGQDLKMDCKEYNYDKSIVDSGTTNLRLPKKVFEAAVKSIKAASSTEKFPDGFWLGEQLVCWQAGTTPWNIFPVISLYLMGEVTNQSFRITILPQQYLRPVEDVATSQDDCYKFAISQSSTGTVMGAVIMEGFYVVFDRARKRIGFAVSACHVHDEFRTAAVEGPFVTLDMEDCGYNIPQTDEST
- RUN DESCRIPTION: BACE1 Assay (Assay 1), fluorescence quench assay
- Format: biochemical
- CONDITION DETAILS: pH 4.4

Observe how each entry below is paired with its result.
> print(dat)
                                   compound  meas.value
1  Cc1cc(CN2C(=O)[C@]3(N=C2N)c2cc(C#N)ccc2C[C@@]32C[C@@H](C)[C@H](O)[C@@H](C)C2)ccn1.O=C(O)C(F)(F)F      9.4 nM
2  C[C@@H]1C[C@@]2(Cc3ccc(C#N)cc3[C@]23N=C(N)N(CCC(F)(F)F)C3=O)C[C@H](C)[C@H]1O     14.6 nM
3  COC1CCC2(CC1)Cc1ccc(C#CC3CC3)cc1C21N=C(N)N(Cc2ncco2)C1=O (stereo not drawn) [drawing 17, reference compound]      5.1 nM

GET /values?readout=IC50&item= COCC(C)N1C(=O)C2(N=C1N)c1cc(C#N)ccc1CC21CCC(OC)CC1 (stereo not drawn) [reference compound] 256 nM

Same question for `CC[C@@H]1C[C@]2(CC[C@H]1O)Cc1ccc(C#N)cc1[C@]21N=C(N)N(CC(C)(C)F)C1=O` please. 10.7 nM

Same question for `C[C@@H]1C[C@@]2(Cc3ccc(C#N)cc3[C@]23N=C(N)N(CCc2ccncc2)C3=O)C[C@H](C)[C@H]1O.O=C(O)C(F)(F)F` please. 9.7 nM

Same question for C[C@@H]1CC2(Cc3ccc(Cl)cc3[C@]23N=C(N)N(Cc2ncccn2)C3=O)C[C@H](C)[C@H]1O (stereo partly drawn) please. 14.6 nM

Same question for `C[C@@H]1C[C@@]2(Cc3ccc(-c4cncnc4)cc3[C@]23N=C(N)N(CC(C)(C)F)C3=O)C[C@H](C)[C@H]1O` please. 2.6 nM
